Where do these numbers come from? They come from PubChem BioAssay AID652.

- target-entity: Gag-Pol polyprotein (Human immunodeficiency virus type 1 group M subtype B (isolate HXB2)) (UniProt P04585)
- test-description: HIV-1 RT RNase H inhibitor potency, dose response, biochemical, probe assessment (AID 652)
- recorded-conditions: HIV-1 RT RNase H enzymatic assay
reported-endpoint: IC50

Example entries and their recorded answers appear below.
O=C(CSc1nc2c([nH]c3ccccc32)c(=O)n1-c1cccc(Cl)c1)N1CCOCC1 23.4 µM
CCOc1ccc(N2Cc3ccccc3C2)cc1 7.36 µM

Query (compound): O=C(COc1ccc(Cl)cc1)Nc1nnc(-c2ccc3c(c2)CCCC3)o1 ; field requested: IC50
4.49 µM

# query: IC50 of entry Nc1c(S(=O)(=O)c2cccc(Cl)c2)c2nc3ccccc3nc2n1/N=C/c1ccc(O)c(O)c1
0.266 µM

* * *

- target-entity: Gag-Pol polyprotein (Human immunodeficiency virus type 1 group M subtype B (isolate HXB2)) (UniProt P04585)
- test-description: HIV-1 RT RNase H inhibitor potency, dose response, biochemical, probe assessment (AID 652)
- recorded-conditions: HIV-1 RT RNase H enzymatic assay, inhibition, at 50 µM, stronger effect = higher value
Entries and their inhibition values follow.
The reply should contain only the number, in %.

Recorded inhibition, per entry:
molecule	reported-endpoint	measured
CCn1cc(C(=O)NCc2ccco2)c(=O)c2cc(S(=O)(=O)N3CCc4ccccc4C3)ccc21	inhibition	76.8
c1ccc2c(c1)nnn2Cc1nnc2sc(-c3ccncc3)nn12	inhibition	90.6
O=S(=O)(c1ccc(S(=O)(=O)N2CCN(C/C=C/c3ccccc3)CC2)cc1)N1CCCC1	inhibition	96.9
COCCn1c(SCCN2CCOCC2)nc2c1c(=O)[nH]c(=O)n2C	inhibition	40

Any idea what its inhibition is? The molecule is COc1ccc(-n2c(SCC(=O)N3CCCC3)nc3c([nH]c4ccccc43)c2=O)cc1
66.7

// returns reported inhibition for input O=C(O)c1cc(S(=O)(=O)Nc2ccc3oc(=O)sc3c2)ccc1O
88.2

Returns the measured inhibition for the input molecule. Input: O=C(COc1ccc(Cl)cc1)Nc1nnc(-c2ccc3c(c2)CCCC3)o1
83.7

* * *

- target-entity: Gag-Pol polyprotein (Human immunodeficiency virus type 1 group M subtype B (isolate HXB2)) (UniProt P04585)
- test-description: HIV-1 RT RNase H inhibitor potency, dose response, biochemical, probe assessment (AID 652)
- recorded-conditions: HIV-1 RT RNase H enzymatic assay, inhibition, at 50 µM, stronger effect = higher value
Listed here: items and their measured inhibition.
Report the value in % with no unit label.

Recorded inhibition, per entry:
molecule	reported-endpoint	measured
CC(=O)c1cccc(NC(=O)c2cc(-c3ccc(C)cc3)on2)c1	inhibition	95.8
CC(C)OC(=O)CSc1nnc(-c2ccc(C(C)(C)C)cc2)n1N	inhibition	59.5
CCOC(=O)N1CC=C2C(C#N)=C(N)C(C#N)(C#N)[C@H](c3ccc(OC(C)C)c(OCC)c3)[C@H]2C1	inhibition	98.5
Cc1cc(C)cc(OCC(=O)Nc2nonc2NC(=O)COc2cc(C)cc(C)c2)c1	inhibition	88
Cc1ccc(-n2nc(C)c3c2NC(=O)CSC3c2ccc3c(c2)OCO3)cc1 (stereo not given)	inhibition	89.4

Need inhibition, item CN(C)c1ccc2c(c1)N=C(c1ccco1)OP2(=S)N1CCOCC1 (stereo not given)
92.9

What does the data say about its inhibition? Entry: COc1ccc(Br)cc1C1CC(=O)N2CN(C)CSC2=C1C#N (stereo not given)
84.1

Find the recorded inhibition belonging to Cc1ccccc1NC(=O)c1c(O)c2cccc3c2n(c1=O)CC3 and report it.
84.6

Which value of inhibition has been reported for c1ccc2c(c1)nnn2Cc1nnc2sc(-c3ccc4c(c3)OCCO4)nn12 in the records?
85.3

If you can, please state the reported inhibition value of CCCCn1c(CN2C(=O)c3ccccc3C2=O)nc2ccccc2c1=O .
98

* * *

Each entry below carries its reported inhibition.
- target-entity: Gag-Pol polyprotein (Human immunodeficiency virus type 1 group M subtype B (isolate HXB2)) (UniProt P04585)
- test-description: HIV-1 RT RNase H inhibitor potency, dose response, biochemical, probe assessment (AID 652)
- recorded-conditions: HIV-1 RT RNase H enzymatic assay, inhibition, at 50 µM, stronger effect = higher value
Hi! Could you send only the number? It should be in %, unit omitted.

// below: answered compounds
compound	unit-of-measurement	inhibition
Cc1ccccc1NC(=O)CSc1nc2c(c(-c3ccco3)c1C#N)CCCC2	%	97.2
Cc1oc(-c2ccc(Cl)cc2)cc1-c1nn2c(-c3ccoc3C)nnc2s1	%	78.4
COc1cc(-c2nnc3sc(-c4cccnc4)nn23)cc(OC)c1OC	%	72.2
O=c1/c(=C/c2ccccn2)sc2nc3ccccc3n12	%	89.2

So what does the record say about inhibition for CCOC(=O)C(C(C)=O)c1c(Br)c(O)c(O)c2c(C(=O)c3ccc(C)cc3)coc12 (stereo not drawn) ?
86.7

What value of inhibition has been reported for the following compound? COC(=O)c1ccccc1NC(=O)c1sc(=S)n(C)c1N
101

* * *

- target-entity: Gag-Pol polyprotein (Human immunodeficiency virus type 1 group M subtype B (isolate HXB2))
- test-description: HIV-1 RT RNase H inhibitor potency, dose response, biochemical, probe assessment (AID 652)
- recorded-conditions: HIV-1 RT RNase H enzymatic assay, inhibition, at 50 µM, stronger effect = higher value
Classification field: enter Y for inhibition values not below 60%, N for values below it.

Known results for compounds:
c1ccc(-c2ccc(-c3ccccn3)nn2)nc1 N
COC(=O)c1cccc(N2C(=O)C(Cl)=C(N3CCOCC3)C2=O)c1 N
Cc1cccc(OCC(=O)Nc2cccc(-c3nnc(-c4ccccc4)o3)c2)c1C Y
COc1cccc(OC)c1-c1nn2c(-c3cc(-c4ccccc4)n[nH]3)nnc2s1 Y

Please turn your attention to the following entry.
Kindly determine if inhibition recorded for O=C(Nc1ccc(N2CCOCC2)cc1)c1ccc2nc(-c3ccco3)c(-c3ccco3)nc2c1 is above or exactly 60%.
Y

* * *

- target-entity: Gag-Pol polyprotein (Human immunodeficiency virus type 1 group M subtype B (isolate HXB2))
- test-description: HIV-1 RT RNase H inhibitor potency, dose response, biochemical, probe assessment (AID 652)
- recorded-conditions: HIV-1 RT RNase H enzymatic assay, inhibition, at 50 µM, stronger effect = higher value
Label scheme for inhibition: low end (below 80%), middle (80% to below 90%), high end (90% or more)

Known results for molecules:
molecule	label-value
COc1ccc(C2c3c(oc4ccc(Cl)cc4c3=O)C(=O)N2Cc2ccco2)cc1OC (stereo not given)	high end
Cc1cccc(C(=O)OCC(=O)Nc2ccc(N3CCCCC3)cc2)c1O	high end
CC(C)c1nc2sc3c(SCC(=O)NCc4ccco4)ncnc3c2c2c1CCC2	high end

Pick a category. Item: COc1cccc(-c2nnc(NC(=O)c3ccc(S(=O)(=O)N(CC(C)C)CC(C)C)cc3)o2)c1
middle

Band of CCOC(=O)c1c(N)sn(-c2ccccc2C)c1=S ?
middle

* * *

Below is a list of entries, each paired with its recorded inhibition value.
- target-entity: Gag-Pol polyprotein (Human immunodeficiency virus type 1 group M subtype B (isolate HXB2)) (UniProt P04585)
- test-description: HIV-1 RT RNase H inhibitor potency, dose response, biochemical, probe assessment (AID 652)
- recorded-conditions: HIV-1 RT RNase H enzymatic assay, inhibition, at 50 µM, stronger effect = higher value
Unit % implied. Number only.

molecule	unit-of-measurement	inhibition
C1=C(c2ccc(-c3ccccc3)cc2)Nc2ncnn2C1c1ccco1 (stereo unspecified)	%	48.6
COc1ccc(C2C(C(C)=O)=C(C)N=c3s/c(=C/c4ccc5c(c4)OCO5)c(=O)n32)cc1 (stereo unspecified)	%	82.2
Cc1cc(NC(=O)CSc2nc3cc4c(cc3c(=O)n2CCc2ccccc2)OCO4)no1	%	76.9
CC(C)Sc1nc2sc3c(c2c2nnc(SCC(=O)NCc4ccco4)n12)CCCC3	%	85.1

Tell me the measured inhibition of Cc1cc(C)c2c(=O)n(CC(=O)NCCCN3CCOCC3)sc2n1 , please.
80.5

Consider the molecule COc1ccc(N2CSC3=C(C#N)C(c4cc(OC)c(OC)cc4OC)CC(=O)N3C2)c(OC)c1 (stereo unspecified) and give its measured inhibition.
76.1

What value of inhibition has been recorded for this entry: Cc1cc(C)c2c(=O)n(CC(=O)N3CCC(N4CCCCC4)CC3)sc2n1
60.1

I would be grateful if you could share the reported inhibition for Cc1ccc(/C=C/C2=Cc3c(sc(NC(=O)CSc4n[nH]c(N)n4)c3C#N)C(C)(C)C2)o1 .
91.1

* * *

- target-entity: Gag-Pol polyprotein (Human immunodeficiency virus type 1 group M subtype B (isolate HXB2))
- test-description: HIV-1 RT RNase H inhibitor potency, dose response, biochemical, probe assessment (AID 652)
- recorded-conditions: HIV-1 RT RNase H enzymatic assay, inhibition, at 50 µM, stronger effect = higher value
Category key, based on recorded inhibition: zone 1 (below 70%), zone 2 (70% to below 90%), zone 3 (90% or more)

Examples with answers:
compound	target-entity	label-value
S=C(c1ccc(Cl)cc1)N1CCOCC1	Gag-Pol polyprotein (Human immunodeficiency virus type 1 group M subtype B (isolate HXB2))	zone 2
c1ccc2c(c1)OCC(c1nnc3sc(-c4ccc5c(c4)OCO5)nn13)O2 (stereo not drawn)	Gag-Pol polyprotein (Human immunodeficiency virus type 1 group M subtype B (isolate HXB2))	zone 3
Cc1cc(NC(=O)CSc2nc(C3CC3)nc3sc4c(c23)CCC(C)C4)no1 (stereo not drawn)	Gag-Pol polyprotein (Human immunodeficiency virus type 1 group M subtype B (isolate HXB2))	zone 3

# bin lookup: classify CC(C)c1nnc(NC(=O)c2c(O)c3cccc4c3n(c2=O)CCC4)s1 by its inhibition
zone 1

Into which category would you place CCCCCCNC(=O)c1c(N)n(/N=C/c2ccco2)c2nc3ccccc3nc12 ?
zone 3

// bin(item) where item = COc1cc(N=c2ssnc2Cl)cc(OC)c1OC
zone 2

Place this compound in its band: N#Cc1c(N)nc(SCC(=O)NC2CCCCC2)c(C#N)c1-c1ccc(Cl)cc1
zone 1

Hey, which category is O=C(Cn1c(=O)oc2cc(S(=O)(=O)N3CCCC3)ccc21)NC1CCCc2ccccc21 (stereo not drawn) in, do you know?
zone 1

Any idea which band O=C1c2sc3nc4ccccc4n3c2C(=O)N1c1ccccc1Cl is in?
zone 3

Form: Item = OCCN1CCN(C(=S)c2ccc(Cl)c(Cl)c2)CC1 ; Class = ?
zone 2

Bin this entry: COC(=O)c1oc2ccc(Br)cc2c1NC(=O)c1ccccc1
zone 3

Given O=C1CC(c2ccco2)Cc2nc(Nc3nc(-c4ccccc4)c4ccccc4n3)ncc21 (stereo not drawn) , name the class its inhibition places it in.
zone 1

Category of CC1CCc2c(sc(NC(=O)c3ccc(Cn4cc(Br)cn4)o3)c2C(N)=O)C1 (stereo not drawn) :
zone 2

Hello team, could you let me know which band the following compound falls into: Cc1nn2c(-c3cccc(NC(=O)CSc4nc5ccccc5o4)c3)nnc2c2ccccc12
zone 3

For this compound, which bin applies? S=c1nc(C2CC2)[nH]c2ccccc12
zone 3

Please report the category associated with O=C(CSc1nc2ccccc2c2nc3ccccc3n12)NCc1ccco1 , nothing else.
zone 1

State the class of the compound shown: Clc1ccccc1-c1nn2c(-c3ccncc3)nnc2s1
zone 2

Please indicate the class for CCOc1cccc(C=Nc2cc(C)cc(C)c2O)c1O based on its inhibition.
zone 1

Pick a category. Item: Cc1cccc(N2CSC3=C(C#N)C(c4ccc(C)o4)CC(=O)N3C2)c1 (stereo not drawn)
zone 3
